Below, each entry is listed with its recorded Human Plasma Anticoagulation 2× Clotting time PT.
# Tested on: Human plasma
# assay-name: Human plasma anticoagulation, prothrombin time (PT)
# Format: biochemical
# assay-context: concentration required to double the PT, linear extrapolation
metric: Human Plasma Anticoagulation 2× Clotting time PT

[[record]]
compound = "CCS(=O)(=O)N[C@H](CC1CCCCC1)C(=O)N1CCC[C@H]1C(=O)NCc1ccc(CN)cc1"
result = "2,700 ng/mL"

[[record]]
compound = "CCS(=O)(=O)N[C@H](Cc1ccccc1)C(=O)N1CCC[C@H]1C(=O)NCCc1cccc(C(=N)N)c1"
result = "27,000 ng/mL"

[[record]]
compound = "N=C(N)c1cccc(CNC(=O)[C@@H]2CCCN2C(=O)[C@H](N)Cc2ccccc2)c1 [Example 16, D-Phe-Pro-m-NHCH2 C6 H4 C(NH)NH2.0.75HCl]"
result = "8,500 ng/mL"

[[record]]
compound = "N=C(N)Nc1ccc(CCNC(=O)[C@@H]2CCCN2C(=O)[C@@H]2NCC[C@@H]3CCCC[C@@H]32)cc1"
result = "78,600 ng/mL"

